Tested on: ACHN
Test: NCI tumour cell line growth inhibition, 48 h
Counter-ions that a name gives are not always drawn. Activity calls are given as the source filed them. No stated cut-off is given here; in the data, active = GI50 up to about 1.1 µM and inactive = higher.
Outcome codes: active, inactive

- C/C(=N\NC(=S)N1CCC1)c1ccccn1: active
- O=C1c2ccccc2C(=O)c2sc(Nc3ccc(Cl)cc3)nc21: inactive
- O=C1CC(c2n[nH]c3ccccc23)C(=O)N1c1ccccc1 (centres undefined): inactive
- CN(/N=C\c1ccc2ccccc2c1)C1=NCCCCN1: inactive
- N[C@H](C(=O)O)[C@H]1ON=C(Cl)[C@@H]1O: inactive
- N=C(N)NS(=O)(=O)c1ccc(/N=N/c2c(O)c(C(=O)O)cc3ccccc23)cc1: inactive
- CCOc1ccccc1/N=N/C1C(=O)N(C(=O)CC(=O)Nc2ccccc2OC)N=C1C (centres undefined): inactive
- NCCCCNCCCN [SPERMIDINE TRIHYDROCHLORIDE]: inactive
- Brc1c2nc3ccccc3nc2n2ccc3ccccc3c12: inactive
- Cc1ccc(N(C(=O)CC(=O)NN)C(=O)c2ccccc2Cl)cc1: inactive
- CCOC(=O)/C(=C\NC#N)c1nc2ccccc2[nH]1: inactive
- CC(=O)OCc1ccc2c(c1)C(O)NC(=O)O2 (centres undefined): inactive
- COc1cc(CCCOC(=O)/C=C/c2ccc(O)c(O)c2)cc(O)c1O: inactive
- CC(=O)OC[C@H]1CN(OC(C)=O)C[C@@H](n2cc(C)c(=O)[nH]c2=O)O1: inactive
- C=CCC1(CN(C)C)CC/C(=C\c2ccc3c(c2)OCO3)C1=O (centres undefined): inactive
- S=C(S)NCC1CCC(CNC(=S)S)CC1 (centres undefined): inactive
- CC(C)(C)C1=Nc2c(Br)cc(C(C)(C)C)cc2C(C(F)(F)F)(C(F)(F)F)O1: inactive
- CC(=O)c1ccc(/N=N/c2ccc3nonc3c2N)cc1: inactive
- Cc1cccc(/N=N/C(=O)NNc2cccc(C)c2C)c1C: inactive
- Cc1ccc(S(=O)(=O)NC2C(=O)c3ccccc3C(=O)C2n2cnc3ccccc32)cc1 (centres undefined): inactive
- CSC1=Nc2ccccc2N=C(c2ccc(Cl)cc2)C1: inactive
- O=S(=O)(O)c1ccc(-c2c3nc(c(-c4ccc(S(=O)(=O)O)cc4)c4ccc([nH]4)c(-c4ccc(S(=O)(=O)O)cc4)c4nc(c(-c5ccc(S(=O)(=O)O)cc5)c5ccc2[nH]5)C=C4)C=C3)cc1: inactive
- COC1=C(OC)CCC(/C(C#N)=C/c2ccc(OC)c(OC)c2)=C1: inactive
- O=C(CC(=O)N(C(=O)c1ccccc1)c1ccc(Cl)cc1)N/N=C\c1ccccc1O: inactive
- O=c1c2ccccc2n2nnc3ccc(NCCCNCCNCCCNc4ccc5nnn6c7ccccc7c(=O)c4c56)c1c32: active
- Cc1n[nH]c(N)c1C(N)=O: inactive
- Cc1ccc2c(c1)S(=O)(=O)c1ccc3ccccc3c1N2: inactive
- Cc1nc(Cl)c(CBr)c(Cl)n1: inactive
- O=c1[nH]nc(Nc2ccccc2)c2nnn(Cc3ccccc3)c12: inactive
- C/C(=N\c1ccc(Cl)cc1)c1ccncc1: active
- CCOC(=O)c1c(-c2ccc(OC)cc2)ccn1C: inactive
- O=C(O)c1ccccc1C(=O)c1ccc2c(c1)Cc1ccccc1-2: inactive
- CN(C)C(=S)/N=c1\ss/c(=N\C(=S)N(C)C)n1-c1ccc2c(c1)OCO2: inactive
- O=C1/C(=C/c2ccc(Br)s2)NC(=S)N1CN1CCOCC1: inactive
- Cc1ccc(C(=O)Oc2ccccc2)cc1/N=N/N(C)C: inactive
- CCN(CC)CCCNC(=O)c1ccc([N+](=O)[O-])cc1O: inactive
- CC1C[C@]2(C)C(NCCN)=Nc3ccccc3[C@@H]2N(C)c2ccccc21 (some centres undefined): inactive
- CC(C)(C)OC(=O)c1cnc(Cl)cn1: inactive
- CCCCN(CCCC)C(=O)/C(CC(=O)c1cccc2ccccc12)=N\NC(=O)c1cc2ccccc2cc1O: inactive
- Cc1ccc(S(=O)(=O)OCC/C(=C\[Si](C)(C)C)c2ccccc2)cc1: inactive
- Cc1cc2[nH]c3c(C#N)c(-c4ccccc4)c(/N=N/c4ccc(F)cc4)c(=O)n3c2cc1C: inactive
- COc1ccc(NC(=O)CSc2nc(C)nc3c2sc(=S)n3-c2ccccc2)cc1: inactive
- CC(O)(Cc1ccccc1C#N)Cc1ccccc1C#N: inactive
- [O-][N+]1=NC(c2ccccc2)=C1c1ccccc1: inactive
